Numbers sourced from patent US6271342A.

Heads up, these molecules all have % cleavage in hepatoma 24 hours values measured for hepatoma.
Your answer should be a plain number; it is taken to be in %.

molecule	system tested	readout unit	% cleavage in hepatoma 24 hours
CO[C@H]1[C@H](O)[C@@H](Oc2ccc(NC(=S)NCCCC[C@H](NC(=S)Nc3ccc(O[C@H]4O[C@@H](C)[C@@H](O)[C@@H](OC)[C@@H]4O)cc3)C(=O)N[C@@H](C)C(=O)NC3C=CCC4CN(c5c(F)cc6c(=O)c(C(=O)O)cn(C7CC7)c6c5Cl)CC43)cc2)O[C@@H](C)[C@H]1O (some centres unmarked) [Example 11.2]	hepatoma	%	0

Consider the additional molecule presented here.
Can you share its % cleavage in hepatoma 24 hours? I mean this molecule: CC(NC(=O)C(CO)NC(=S)Nc1ccc(OC2OC(C)C(O)C(O)C2O)cc1)C(=O)Nc1ccc2c(c1)Cn1c-2nc2ccccc2c1=O (centres unmarked) [Example 7.3]
0
